Measured melting point accompanies every entry in the list below.
Your answer is read as °C, so omit the unit and give the number.

>>> numeric_result("N#CC1=C(c2cccs2)Nc2n[nH]cc2C1c1cccc2nsnc12 (stereo not given)")
254

Next compound, melting point to be filled in.
Record summary for "CC(C)c1cc2c(-c3nc4cnccc4[nH]3)ccc(OC(F)F)c2o1" : reported melting point = 201

====

Measured melting point accompanies every entry in the list below.

Observe how each entry below is paired with its result.
>>> result("N#CC(NC(=O)C(F)(F)C(F)(F)F)c1ccc(Cl)cc1 (centres undefined)")
"118 °C"
>>> result("CC1(c2ccc(Br)cc2)Cc2cc(O)c(Cl)c(Cl)c2C1=O (centres undefined)")
"221 to 223 °C"
>>> result("NC(=O)c1nc(-c2cccc(O)c2)nc2c1[nH]c(=O)n2-c1ccccc1C1CCCCC1")
"> 270 °C"

Record summary for "Cc1cc(C#N)c(C)c(C(=O)Nc2ccc(Cl)cn2)n1" : reported melting point = 264 °C

Record summary for "COCc1cnc2c(NC(=O)c3c(Cl)cccc3Cl)cc(C)cc2c1-n1ccnc1" : reported melting point = 99 to 101 °C

Record summary for "CN(C)c1ccc(NC(=O)N(Cc2ccco2)C[C@@H]2CCC[C@H](CN(Cc3ccco3)C(=O)Nc3ccc(N(C)C)cc3)C2)cc1" : reported melting point = 68 to 73 °C

Record summary for "C[C@@H]1S[C@@H](C(=O)N(C)c2ccc(CN3CCOCC3)cc2)Cc2cc3c(cc2C1=O)OCO3" : reported melting point = 162 to 165 °C

Record summary for "COCCc1nc2c(N)nc3ccccc3c2n1CCOCCNC(=O)Nc1ccccc1" : reported melting point = 171 to 174 °C

Record summary for CC(C)(Cl)C(CNC(=O)c1ccc([N+](=O)[O-])o1)N=O (centres undefined) : reported melting point = 110 to 112 °C

====

Measured melting point accompanies every entry in the list below.

Observe how each entry below is paired with its result.
>>> result("CCCCCCCCOC(=O)c1ccc(OC(=O)c2ccc(C(=O)Oc3ccc(C(=O)OCCCCCCCC)cc3)cc2)cc1")
"108 to 110 °C"
>>> result("Cc1c(C)c(N2CCN(Cc3ccccc3)CC2)c(C)c2c1OC(C)(C)C2c1ccc(F)nc1 (stereo not drawn)")
"76 to 79 °C"

Record summary for "CC(=O)Nc1cccc(Oc2c(N)cc(C(=O)O)cc2S(N)(=O)=O)c1" : reported melting point = 295 °C

Record summary for "Cc1cc(Br)cc(C)c1NC(=O)Nc1ccc(-n2nc(C(F)(F)F)cc2C(F)(F)F)cc1" : reported melting point = > 230 °C

Record summary for CC(C)(C)NCC(O)c1cc(Cl)c(NC(=O)NC(C)(C)C)c(Cl)c1 (stereo not drawn) : reported melting point = 167 to 169 °C

Record summary for "CCn1nc(OCCCc2ccc(OCCOC(C)C)cc2Oc2ncc(C(F)(F)F)cc2Cl)cc1CCC(=O)O" : reported melting point = 130 to 132 °C

Record summary for "CCC1(CC)c2cc(-c3nc4ccccc4s3)ccc2-c2ccc(N(c3ccc(Oc4ccc(N)cc4)cc3)c3ccc(Oc4ccc(N)cc4)cc3)cc21" : reported melting point = 192 to 194 °C

Record summary for "CCn1ncc2c1ncc1c(=O)n3nccc3n(CCC(C)C)c12" : reported melting point = 167 to 168 °C
